tested.target: Coagulation factor X (Homo sapiens)
Sequence (P00742 41-179 limits assumed): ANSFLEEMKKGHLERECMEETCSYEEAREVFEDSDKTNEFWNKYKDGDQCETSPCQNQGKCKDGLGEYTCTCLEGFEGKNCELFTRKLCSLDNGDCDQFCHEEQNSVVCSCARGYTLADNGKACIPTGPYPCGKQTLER
Sequence (P00742 235-488 limits assumed): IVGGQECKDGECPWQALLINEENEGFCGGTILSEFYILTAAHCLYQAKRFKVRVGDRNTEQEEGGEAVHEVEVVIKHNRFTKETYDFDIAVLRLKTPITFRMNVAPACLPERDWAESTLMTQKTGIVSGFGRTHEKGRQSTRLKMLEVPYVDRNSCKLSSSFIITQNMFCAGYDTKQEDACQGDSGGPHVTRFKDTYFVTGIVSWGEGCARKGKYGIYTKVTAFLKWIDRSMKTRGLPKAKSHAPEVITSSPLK
test.description: Compound was tested for inhibition of blood coagulation factor X
pKi: −log10 of the molar value.
reported.endpoint: pKi

Worked cases, pKi given:
INSERT INTO assay_data (molecular_string, reported_endpoint, measured_value) VALUES
  ('N=C(N)c1ccc(N2CCCCN(c3cccc(C(=N)N)c3)C2=O)cc1', 'pKi', 6.10),
  ('N=C(N)c1cccc(N2CCCCN(C3CCN(Cc4ccccc4)CC3)C2=O)c1', 'pKi', 6.99),
  ('N=C(N)c1cccc(N2CCN(C3CCN(Cc4ccccc4)CC3)C2=O)c1', 'pKi', 5.68),
  ('N=C(N)c1cccc(N2CCCN(C3CCN(Cc4ccccc4)CC3)C2=O)c1', 'pKi', 6.40),
  ('N=C(N)c1ccc(N2CCCCN(C3CCN(Cc4ccccc4)CC3)C2=O)cc1', 'pKi', 5.12);

A = N=C(N)c1cccc(NC(=O)NC2CCN(Cc3ccccc3)CC2)c1
B = N=C(N)c1cccc(N2CCCCN(C3CCN(C(=N)N)CC3)C2=O)c1
(Q) Of A versus B , which is the one with smaller reported pKi? // caller expects the label of the chosen entry
(A) A
